Exercise: state measured GI50 for each of the compounds provided.
Test system: NCI/ADR-RES ovarian
Experiment: NCI tumour cell line growth inhibition, 48 h

Examples with their reported GI50 follow.
N#CC1CCc2c(c(-c3cn[nH]c3C(F)(F)F)nc3c(F)cc4[nH]ncc4c23)C1 (stereo not drawn) | > 100 µM
S=C(Nc1ccccc1)N1CCn2c1nsc2=Nc1ccccc1 | > 100 µM

Short answer for `CC(C)(F)C[C@H](N[C@@H](c1ccc(-c2ccc(S(C)(=O)=O)cc2)cc1)C(F)(F)F)C(=O)NC1(C#N)CC1` : GI50 was 34.1 µM

###

System: DMS 273 small cell lung
Test: NCI tumour cell line growth inhibition, 48 h
So I've got a bunch of compounds here, and I need their TGI values.

CC(=O)OCC(OC(C)=O)C(OC(C)=O)C(OC(C)=O)C(=O)CNn1c(-c2ccccc2Cl)nc2ccc(Br)cc2c1=O (stereo not drawn) | > 100 µM
CC1=NN(C(=O)c2cc(Cl)cc([N+](=O)[O-])c2)C(=O)C1N=Nc1ccccc1C(=O)O (stereo not drawn) | > 100 µM

Next compound, please.
// recorded TGI for COc1ccc(N2C(=O)C(N3C(=O)C=CC3=O)C2C=O)cc1 (stereo not drawn) : > 100 µM
